biological target: Human Fc (human); assay: ELISA; negative control
Endpoint name: optical density (OD)
A number alone suffices; assume OD.

Look up optical density for this binder: 365_A12 (antibody, V domains shown) VH: EVQLLESGGGLVQPGGSLRLSCAASGFTFSSYGMHWVRQAPGKGLEWVAGINYNGGYTSYADSVKGRFTISRDNSKNTLYLQMNSLRAEDTAVYYCAKSANWHDTHLDYWGQGTLVTVSS VL: DIQMTQSPSSLSASVGDRVTITCRASQSILTYVNWYQQKPGKAPKLLIYAATSRHSGVPSRFSGSGSGTDFTLTISSLQPEDFATYYCQQSYENPLTFGGGTKVEIK 0.422

And for 365_C02 (antibody, V domains shown) VH: EVQLLESGGGLVQPGGSLRLSCAASGFTFDSYSMNWVRQAPGKGLEWVSNINYNGGYKGYADSVKGRFTISRDNSKNTLYLQMNSLRAEDTAVYYCARGATWHDTHLDYWGQGTLVTVSS VL: DIQMTQSPSSLSASVGDRVTITCRASQSISTYLNWYQQKPGKAPKLVIYAATSRHSGVPSRFSGSGSGTDFTLTISSLQPEDFATYYCQQSYENPLTFGGGTKVEIK ? 0.362

And for 370_B08 (antibody, V domains shown) VH: EVQLLESGGGLVQPGGSLRLSCAASGFTFSDYSMNWVRQAPGKGLEWVANINYNGGYTGYADSVKGRFTISRDNSKNTLYLQMNSLRAEDTAVYYCARGATWHDTHLDYWGQGTLVTVSS VL: DIQMTQSPSSLSASVGDRVTITCRASQSILSYLNWYQQKPGKAPKLLIYAASSLQSGVPSRFSGSGSGTDFTLTISSLQPEDFATYYCQQSYDSPLTFGGGTKVEIK ? 0.302
